Item-by-item account of OD (phage ELISA reactivity)
Biological target: AVR1675 (LFG2 3F3:3D10 IgG1 kappa) (mouse)
Experiment: ELISA
Where no end group is shown, it is not given here.
MEASUREMENT_TYPE: OD (phage ELISA reactivity) (OD)

{"BINDER": "TWRDDIPGGGS (not fully specified) [phage-displayed peptide T-W-R-D-D-I-P (phage clone φD8)]", "RESULT_VALUE": 0.79}
{"BINDER": "TFKDDGYGGGS (not fully specified) [phage-displayed peptide T-F-K-D-D-G-Y (phage clone φD4)]", "RESULT_VALUE": 0.08}
{"BINDER": "TVRDDQIGGGS (not fully specified) [phage-displayed peptide T-V-R-D-D-Q-I (phage clone φD7)]", "RESULT_VALUE": 1.78}
